Source of measurements: paper PMC12298827

Experiment description: Parent chemical in rat plasma, 14-day study
Type: in vivo
Condition parameters: Sprague-Dawley, rat, plasma, oral; male, Day 15, 300 mg/kg-day
Entries and their concentration at 15 day values follow.
Property measured: concentration at 15 day (µg/mL)

[
  {
    "Compound": "O=C(O)C(F)(Cl)C(F)(F)F (centres unmarked)",
    "Unit abbrev": "µg/mL",
    "Obs value": 120
  },
  {
    "Compound": "FC(F)(F)C(F)(F)C(F)(F)C(F)(F)CCI [PFHI, 1H,1H,2H,2H-Perfluorohexyl iodide]",
    "Unit abbrev": "µg/mL",
    "Obs value": 0.0267
  }
]
